All values here come from PubChem BioAssay.

# protocolText: human hepatoma cell viability loss – ATP luminescence, cytotoxicity control for P. falciparum antimalarial project, primary screen (AID 2303)
# measurementContext: HepG2 viability, 24-48 h, at 10 µM
Active and inactive are the calls of the source.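 Rule for the calls: active = inhibition above 50%; inactive = the rest.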
Select the correct class. Options are active, inactive and nothing else.

Example cases with answers are listed next.
compound	qualitativeLabel
CN(C)CCN(C)Cc1ccc(-c2ccc(NC(=O)c3cccc(C#N)c3)cc2)cc1	inactive
COC(=O)c1cccc(NC(=O)NC2CCN(c3ccnc(NCc4ccc(F)cc4)n3)CC2)c1	inactive
COC(=O)c1ccc2nc(-c3ccc(/C=C/C(=O)NC4CCN(Cc5ccccc5)CC4)cc3)[nH]c2c1	inactive

Request: Record request — test call for Nc1c(Cl)cc(C(O)CNCCCCCOCCc2ccccc2)cc1C(F)(F)F (stereo not drawn)
Result: inactive

Request: Record request — test call for N=C(N)c1ccc(NC(=O)c2cc(Sc3ccc(O)c(C(=O)Nc4ccc(C(=N)N)cc4)c3)ccc2O)cc1
Result: inactive

Request: Record request — test call for FC(F)(F)CNc1nc(Nc2ccc3ncccc3c2)nc2[nH]ccc12
Result: inactive

Request: Record request — test call for Cc1ccc(C(NC(=O)c2ccccc2)c2ccc3cccnc3c2O)cc1 (stereo not drawn)
Result: active

Request: Record request — test call for O=c1[nH]c(NCCCNCc2cc3c(Cl)cc(Cl)cc3[nH]2)nc2ccsc12
Result: active
